Test system: A. baumannii clinical isolates
TEST NAME: microbe, parasite or virus in culture
Type: cell-based
CONDITION INFO: Acinetobacter baumannii, isolate ARC7010 (IHMA 2043398), United States, RTI, 2019, read-out: MIC
Description: The following report describes the genomic analysis of these isolates for likely resistance mechanisms. Biochemical analysis of purified PBP3 and phenotypic analyses of both clinical and isogenic strains were also conducted to determine the relative impact of key resistance determinants to SUL-DUR antibacterial activity. […]
OBSERVATION TYPE: MIC

Examples with their reported MIC follow.
COMPOUND	TARGET OR SYSTEM	MIC
CN(C)c1cc(NC(=O)CNC(C)(C)C)c(O)c2c1C[C@H]1C[C@H]3[C@H](N(C)C)C(O)=C(C(N)=O)C(=O)[C@@]3(O)C(O)=C1C2=O [TIG, tigecycline]	A. baumannii clinical isolates	1 µg/mL
C[C@@H](O)[C@H]1C(=O)N2C(C(=O)O)=C(SCCN=CN)C[C@H]12 [imipenem]	A. baumannii clinical isolates	> 64 µg/mL
C[C@@H](O)[C@H]1C(=O)N2C(C(=O)O)=C(S[C@@H]3CN[C@H](C(=O)N(C)C)C3)[C@H](C)[C@H]12 [meropenem]	A. baumannii clinical isolates	> 64 µg/mL

Continue with the compound presented below.
query: What measured MIC goes with CC1(C)[C@H](C(=O)O)N2C(=O)C[C@H]2S1(=O)=O [sulbactam] ?
result: > 64 µg/mL

----------
System: A. baumannii clinical isolates
TEST NAME: microbe, parasite or virus in culture
Type: cell-based
CONDITION INFO: Acinetobacter baumannii, isolate ARC6650 (IHMA 1457337), Argentina, RTI, 2016, read-out: MIC
For each entry below, report its MIC value.
One number for each entry, in µg/mL.

STRUCTURE AS SMILES	UNIT ANNOTATION	VALUE MEASURED
CN(C)c1cc(NC(=O)CNC(C)(C)C)c(O)c2c1C[C@H]1C[C@H]3[C@H](N(C)C)C(O)=C(C(N)=O)C(=O)[C@@]3(O)C(O)=C1C2=O	µg/mL	1

# batch: return MIC for each of the 3 compounds below
1. CC1(C)[C@H](C(=O)O)N2C(=O)C[C@H]2S1(=O)=O
2. C[C@@H](O)[C@H]1C(=O)N2C(C(=O)O)=C(SCCN=CN)C[C@H]12
3. C[C@@H](O)[C@H]1C(=O)N2C(C(=O)O)=C(S[C@@H]3CN[C@H](C(=O)N(C)C)C3)[C@H](C)[C@H]12

result:
1. 64
2. 32
3. 64

----------
TARGET OR SYSTEM: A. baumannii PBP3 N377Y
TEST NAME: Acylation rate constant (kinact/Ki), fluorescence anisotropy competition with BOCILLIN
CONDITION INFO: average ± SD
For each entry below, report its k inact/K i value.

Examples with their reported k inact/K i follow.
STRUCTURE AS SMILES	k inact/K i
C[C@@H](O)[C@H]1C(=O)N2C(C(=O)O)=C(SCCN=CN)C[C@H]12	280 ± 10 ([2]) M^-1s^-1
C[C@@H](O)[C@H]1C(=O)N2C(C(=O)O)=C(S[C@@H]3CN[C@H](C(=O)N(C)C)C3)[C@H](C)[C@H]12	3,700 ± 300 ([2]) M^-1s^-1
CC1(C)[C@H](C(=O)O)N2C(=O)C[C@H]2S1(=O)=O	11 ± 2 ([2]) M^-1s^-1

query: Form field: k inact/K i recorded for C[C@H]1[C@H](NC(=O)/C(=N\OC(C)(C)C(=O)O)c2csc(N)n2)C(=O)N1S(=O)(=O)O with A. baumannii PBP3 N377Y (enter value)
result: 510 ± 60 ([2]) M^-1s^-1

Where do the numbers come from? From paper PMC10648852.
